Listing: pEC50 of selected molecules
Target: hERG channel (Homo sapiens, UniProt Q12809)
Sequence (Q12809 whole entry): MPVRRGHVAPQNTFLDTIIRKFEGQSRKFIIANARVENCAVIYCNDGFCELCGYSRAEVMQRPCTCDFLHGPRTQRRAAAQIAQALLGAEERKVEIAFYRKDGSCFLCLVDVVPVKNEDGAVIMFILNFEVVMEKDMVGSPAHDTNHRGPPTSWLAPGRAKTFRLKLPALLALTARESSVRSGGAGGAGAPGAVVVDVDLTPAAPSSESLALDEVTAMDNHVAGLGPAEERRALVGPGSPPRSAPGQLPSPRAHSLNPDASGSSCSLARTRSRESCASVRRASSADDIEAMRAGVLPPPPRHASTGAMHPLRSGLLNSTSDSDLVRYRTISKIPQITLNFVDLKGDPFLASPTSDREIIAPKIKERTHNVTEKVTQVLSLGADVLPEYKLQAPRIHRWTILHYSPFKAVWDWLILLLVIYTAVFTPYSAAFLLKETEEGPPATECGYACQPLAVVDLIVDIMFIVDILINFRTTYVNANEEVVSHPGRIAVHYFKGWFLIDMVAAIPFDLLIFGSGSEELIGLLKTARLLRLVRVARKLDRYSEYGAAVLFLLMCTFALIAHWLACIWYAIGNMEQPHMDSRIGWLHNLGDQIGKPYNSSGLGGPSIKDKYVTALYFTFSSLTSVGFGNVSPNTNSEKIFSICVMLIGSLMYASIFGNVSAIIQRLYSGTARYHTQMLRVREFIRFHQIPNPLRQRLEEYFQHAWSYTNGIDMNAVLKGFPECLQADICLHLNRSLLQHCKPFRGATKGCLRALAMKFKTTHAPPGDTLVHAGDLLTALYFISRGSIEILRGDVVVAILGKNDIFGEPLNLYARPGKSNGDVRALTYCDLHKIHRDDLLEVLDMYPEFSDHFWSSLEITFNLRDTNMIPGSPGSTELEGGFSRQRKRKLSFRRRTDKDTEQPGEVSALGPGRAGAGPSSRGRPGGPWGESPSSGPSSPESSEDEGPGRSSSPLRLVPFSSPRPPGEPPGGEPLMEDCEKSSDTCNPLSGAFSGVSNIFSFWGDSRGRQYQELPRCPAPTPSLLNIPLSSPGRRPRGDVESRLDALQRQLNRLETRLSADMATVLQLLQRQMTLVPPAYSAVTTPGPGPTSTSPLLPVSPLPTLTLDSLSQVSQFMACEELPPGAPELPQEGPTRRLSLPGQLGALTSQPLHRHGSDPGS
Assay: hERG FluxOR-based thallium flux assay
Settings: In Vitro Toxicity
pEC50: −log10 of the molar value.

Example molecules with recorded pEC50:
pEC50 for Cc1ccccc1[C@@H](C(=O)NC1CCCC1)N(C(=O)Cn1cnc2ccccc21)c1cccc(F)c1 [ML309] is < 4.52

For Cc1ccccc1C(C(=O)NC1CCCCC1)N(C(=O)Cn1cnc2ccccc21)c1cccc(F)c1 (stereo not drawn) [Agios 135] the molecule record lists pEC50 as < 4.52

response.value for O=C(Nc1cccc(C(F)(F)F)c1)Nc1cc(S(=O)(=O)NC2CC2)ccc1-c1ccsc1 [AGI-6780] (field: pEC50) = 4.60

So, CC(=O)N1CCN(Cc2ccc([C@H](C)Nc3nccc(N4C(=O)OC[C@@H]4C(C)C)n3)cc2)CC1 [Norvartis 556] ? Its pEC50 was < 4.52

Reported pEC50 for N#Cc1ccnc(N2C(=O)CC[C@H]2C(=O)N(c2cncc(F)c2)[C@H](C(=O)NC2CC(F)(F)C2)c2ccccc2Cl)c1 [AG-120, Ivosidenib] was < 4.52

More entries:
Please fill in: pEC50 reported for COc1c(C)cc(NC(=O)c2nn(Cc3ccc(F)cc3)c3c2CN(C(=O)c2ccc[nH]2)C[C@]3(C)C(N)=O)cc1C [GSK864] = 5.32

Briefly, pEC50 measured for Cc1ccccc1C(C(=O)NC1CCCCC1)N(C(=O)Cn1ccnc1C)c1cccc(F)c1 (stereo not drawn) [AGI-5198] : < 4.52

GET /value?item= CC(C)Nc1nc(Nc2ccccc2)nc(-c2ccccc2)n1 [IDH2-C100] &field=pEC50 returns < 4.52

molecule CC(C)(O)CNc1nc(Nc2ccnc(C(F)(F)F)c2)nc(-c2cccc(C(F)(F)F)n2)n1 [AG-221, Enasidenib] , pEC50 observed: < 4.52

---

Listed here: items and their measured Emax.
Molecular target: IDH2 WT (Homo sapiens, UniProt P48735)
Sequence (P48735 40-452): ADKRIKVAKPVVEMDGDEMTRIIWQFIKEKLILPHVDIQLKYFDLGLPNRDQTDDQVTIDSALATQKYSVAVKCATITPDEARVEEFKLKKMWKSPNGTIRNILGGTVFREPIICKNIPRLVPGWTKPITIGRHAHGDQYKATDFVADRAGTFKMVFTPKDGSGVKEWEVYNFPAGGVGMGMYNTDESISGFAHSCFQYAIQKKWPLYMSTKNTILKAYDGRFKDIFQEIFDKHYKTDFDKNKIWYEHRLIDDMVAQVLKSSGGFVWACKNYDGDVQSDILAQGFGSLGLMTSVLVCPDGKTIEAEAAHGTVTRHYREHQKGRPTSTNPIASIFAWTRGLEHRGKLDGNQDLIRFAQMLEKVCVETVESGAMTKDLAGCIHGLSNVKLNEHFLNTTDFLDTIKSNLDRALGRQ
Assay: Wild type IDH2 enzyme assay, diaphorase/resazurin coupled
Conditions: read-out: IDH2 % EMax
Response body: numeric value in %, unit text excluded.

Sample CC(C)(C)CC(C)(C)c1cc(Cn2ccnc2)c(O)c(Cn2ccnc2)c1 [Sanofi 1] ; Emax observed: 26.7

Lab note: CC(=O)N1CCN(Cc2ccc([C@H](C)Nc3nccc(N4C(=O)OC[C@@H]4C(C)C)n3)cc2)CC1 [Norvartis 556] gave Emax of 20.7

Entry under test: CC(C)Nc1nc(Nc2ccccc2)nc(-c2ccccc2)n1 [IDH2-C100] . Its Emax was 84.7

Emax in this record for O=C(Nc1cccc(C(F)(F)F)c1)Nc1cc(S(=O)(=O)NC2CC2)ccc1-c1ccsc1 [AGI-6780] : 85.2

For the next question, use this compound.
Entry CC(C)(O)CNc1nc(Nc2ccnc(C(F)(F)F)c2)nc(-c2cccc(C(F)(F)F)n2)n1 [AG-221, Enasidenib] — recorded Emax = 83.4

---

Assay: in vitro
Settings: human, Caco-2
observable: Papp A→B at 2 h, 10 µM (×10⁻⁶ cm/s)
Hi! Could you send only the number? It should be in ×10⁻⁶ cm/s, unit omitted.

Sample answers from the record:
Sure, the documented Papp A→B at 2 h, 10 µM for N#Cc1ccnc(N2C(=O)CC[C@H]2C(=O)N(c2cncc(F)c2)[C@H](C(=O)NC2CC(F)(F)C2)c2ccccc2Cl)c1 [AG-120, Ivosidenib] is 0.85

Measured Papp A→B at 2 h, 10 µM, Cc1ccccc1C(C(=O)NC1CCCCC1)N(C(=O)Cn1ccnc1C)c1cccc(F)c1 (stereo not drawn) [AGI-5198] : 0.99

Recorded result, CC(C)(O)CNc1nc(Nc2ccnc(C(F)(F)F)c2)nc(-c2cccc(C(F)(F)F)n2)n1 [AG-221, Enasidenib] , Papp A→B at 2 h, 10 µM: 9.41

Value of measured Papp A→B at 2 h, 10 µM for the entry Cc1ccccc1[C@@H](C(=O)NC1CCCC1)N(C(=O)Cn1cnc2ccccc21)c1cccc(F)c1 [ML309] : 4.9

Next:
// recorded Papp A→B at 2 h, 10 µM for Cc1ccccc1C(C(=O)NC1CCCCC1)N(C(=O)Cn1cnc2ccccc21)c1cccc(F)c1 (stereo not drawn) [Agios 135] : 0.3

Reported Papp A→B at 2 h, 10 µM for CC(C)Nc1nc(Nc2ccccc2)nc(-c2ccccc2)n1 [IDH2-C100] was 0.57

---

Test: Human hepatocyte cytotoxicity (CellTiter-Glo, 72 hr)
Conditions: both, human, cryopreserved human hepatocytes
Entries whose Emax at 72 h is below 80% take yes; entries at or above 80% take no.

(Q) API: query returns whether the molecule falls strictly under 80% in Emax at 72 h. Query: CC(C)Nc1nc(Nc2ccccc2)nc(-c2ccccc2)n1
(A) yes

(Q) Decide: Emax at 72 h of N#Cc1ccnc(N2C(=O)CC[C@H]2C(=O)N(c2cncc(F)c2)[C@H](C(=O)NC2CC(F)(F)C2)c2ccccc2Cl)c1 strictly below 80%?
(A) yes

(Q) Emax at 72 h under 80%? Item: Cc1ccccc1C(C(=O)NC1CCCCC1)N(C(=O)Cn1ccnc1C)c1cccc(F)c1 (stereo not drawn)
(A) no

(Q) Please check: Emax at 72 h for Cc1ccccc1[C@@H](C(=O)NC1CCCC1)N(C(=O)Cn1cnc2ccccc21)c1cccc(F)c1 , strictly under 80% or not?
(A) no

(Q) State whether 80% exceeds Emax at 72 h recorded for COc1c(C)cc(NC(=O)c2nn(Cc3ccc(F)cc3)c3c2CN(C(=O)c2ccc[nH]2)C[C@]3(C)C(N)=O)cc1C .
(A) no

New cases:
(Q) Field: below-cutoff. Rule: recorded Emax at 72 h strictly less than 80%. Subject: CC(=O)N1CCN(Cc2ccc([C@H](C)Nc3nccc(N4C(=O)OC[C@@H]4C(C)C)n3)cc2)CC1
(A) yes

(Q) Threshold test, Emax at 72 h < 80%: O=C(Nc1cccc(C(F)(F)F)c1)Nc1cc(S(=O)(=O)NC2CC2)ccc1-c1ccsc1
(A) no

(Q) Does Cc1ccccc1C(C(=O)NC1CCCCC1)N(C(=O)Cn1cnc2ccccc21)c1cccc(F)c1 (stereo not drawn) have Emax at 72 h strictly under 80%?
(A) no

(Q) Determine if CC(C)(O)CNc1nc(Nc2ccnc(C(F)(F)F)c2)nc(-c2cccc(C(F)(F)F)n2)n1 shows Emax at 72 h strictly lower than 80%.
(A) no

---

Tested on: RBE (R132S) cells
Test: 2-HG production, monolayer (2D), mass spectrometry, RBE
Type: cell-based
Settings: Homo sapiens, mass spec, read-out: 2D Cellular 2HG Production (Mass Spec) RBE (R132S) EC50
Some compounds, each annotated with its measured EC50.
Please reply with the bare figure in nM and do not write the unit itself.

Below are worked cases with known answers.
Per the records, this compound ( Cc1ccccc1C(C(=O)NC1CCCCC1)N(C(=O)Cn1cnc2ccccc21)c1cccc(F)c1 (stereo not drawn) ) has EC50 equal to 810

Lookup result for CC(=O)N1CCN(Cc2ccc([C@H](C)Nc3nccc(N4C(=O)OC[C@@H]4C(C)C)n3)cc2)CC1 ; measured EC50: 912

EC50 reading for COc1c(C)cc(NC(=O)c2nn(Cc3ccc(F)cc3)c3c2CN(C(=O)c2ccc[nH]2)C[C@]3(C)C(N)=O)cc1C : 532

Data point: CC(C)[C@H]1COC(=O)N1c1ccnc(N[C@@H](C)c2ccc(CN3CCC(F)(F)CC3)cc2)n1 ; EC50 = 221

Now for a further compound.
Noted for Cc1ccccc1C(C(=O)NC1CCCCC1)N(C(=O)Cn1ccnc1C)c1cccc(F)c1 (stereo not drawn) : its EC50 reads 2000

---

Reported values of half-life at 1 µM for individual entries
Assay: Microsomal metabolic stability, mouse
Format: in vitro ADME
Conditions: pH 7.4; mouse liver microsomes
The response must be a number in min with no trailing unit.

Entry Cc1ccccc1C(C(=O)NC1CCCCC1)N(C(=O)Cn1cnc2ccccc21)c1cccc(F)c1 (stereo not drawn) — recorded half-life at 1 µM = 2.9

Reported half-life at 1 µM ( O=C(Nc1cccc(C(F)(F)F)c1)Nc1cc(S(=O)(=O)NC2CC2)ccc1-c1ccsc1 ) = 4.6

Lab book: half-life at 1 µM of Cc1ccccc1C(C(=O)NC1CCCCC1)N(C(=O)Cn1ccnc1C)c1cccc(F)c1 (stereo not drawn) noted as 3.5

Per the record, CC(=O)N1CCN(Cc2ccc([C@H](C)Nc3nccc(N4C(=O)OC[C@@H]4C(C)C)n3)cc2)CC1 has half-life at 1 µM of 10.3

Lookup result for CC(C)Nc1nc(Nc2ccccc2)nc(-c2ccccc2)n1 ; measured half-life at 1 µM: 13.5

Continuing:
The compound listed as Cc1ccccc1[C@@H](C(=O)NC1CCCC1)N(C(=O)Cn1cnc2ccccc21)c1cccc(F)c1 has a reported half-life at 1 µM of 2.7

Noted for COc1c(C)cc(NC(=O)c2nn(Cc3ccc(F)cc3)c3c2CN(C(=O)c2ccc[nH]2)C[C@]3(C)C(N)=O)cc1C : its half-life at 1 µM reads 12.7
